Cited source for all entries: patent US9999622B2

target: JAK2 (Homo sapiens); construct: purchased Carna Biosciences, Inc; assay: JAK tyrosine kinase inhibitory activity in the presence of 1 mM ATP (ELISA), JAK2; assay type: biochemical
Sequence (O60674 whole entry): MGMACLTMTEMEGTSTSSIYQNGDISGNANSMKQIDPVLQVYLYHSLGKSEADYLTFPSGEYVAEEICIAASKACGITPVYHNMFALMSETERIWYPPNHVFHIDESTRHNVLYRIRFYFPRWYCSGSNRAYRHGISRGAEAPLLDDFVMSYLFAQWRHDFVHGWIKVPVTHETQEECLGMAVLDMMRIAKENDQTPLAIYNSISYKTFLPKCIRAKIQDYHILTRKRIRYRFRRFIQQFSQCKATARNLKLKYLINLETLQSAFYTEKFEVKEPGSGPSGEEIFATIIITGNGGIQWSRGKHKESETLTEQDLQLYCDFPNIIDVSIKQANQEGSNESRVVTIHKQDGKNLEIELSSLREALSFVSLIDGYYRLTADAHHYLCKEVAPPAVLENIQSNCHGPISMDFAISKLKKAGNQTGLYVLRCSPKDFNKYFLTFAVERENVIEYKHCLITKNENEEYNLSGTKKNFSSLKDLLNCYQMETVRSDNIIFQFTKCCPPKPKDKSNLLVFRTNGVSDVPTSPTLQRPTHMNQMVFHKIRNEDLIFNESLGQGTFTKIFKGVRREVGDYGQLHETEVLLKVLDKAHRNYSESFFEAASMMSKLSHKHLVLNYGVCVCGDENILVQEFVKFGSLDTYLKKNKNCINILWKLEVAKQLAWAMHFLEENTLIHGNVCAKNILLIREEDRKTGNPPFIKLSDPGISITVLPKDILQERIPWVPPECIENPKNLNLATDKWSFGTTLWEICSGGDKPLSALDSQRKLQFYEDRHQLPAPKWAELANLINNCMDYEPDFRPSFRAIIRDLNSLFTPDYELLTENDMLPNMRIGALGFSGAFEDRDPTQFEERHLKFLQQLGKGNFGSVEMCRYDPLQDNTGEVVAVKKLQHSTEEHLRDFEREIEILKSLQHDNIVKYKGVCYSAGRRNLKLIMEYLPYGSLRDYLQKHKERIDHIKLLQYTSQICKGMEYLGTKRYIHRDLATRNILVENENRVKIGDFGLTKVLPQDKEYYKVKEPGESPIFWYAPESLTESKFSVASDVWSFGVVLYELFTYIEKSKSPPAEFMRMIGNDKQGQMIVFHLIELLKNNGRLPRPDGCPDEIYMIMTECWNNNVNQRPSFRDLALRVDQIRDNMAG
Structures can show the parent of a compound that is named as a salt.
Readout label: IC50 (nM)

// below: answered compounds
{"Compound": "C[C@H](Nc1cc(C(=O)N2CCC(O)CC2)nc(-c2cnn3ccsc23)n1)C1CC1 [Example 20, hydrochloride]", "Experimental target": "JAK2 (Homo sapiens)", "Unit tag": "nM", "IC50": 4700}
{"Compound": "CCC(CC)N(C)c1cc(C(=O)N2CCC(O)CC2)nc(-c2cnn3ccsc23)n1 [Example 120, hydrochloride]", "Experimental target": "JAK2 (Homo sapiens)", "Unit tag": "nM", "IC50": 3000}
{"Compound": "COC(=O)NC1CCN(C(=O)c2cc(OC3CCC3)nc(-c3cnn4ccsc34)n2)CC1", "Experimental target": "JAK2 (Homo sapiens)", "Unit tag": "nM", "IC50": 3100}
{"Compound": "C[C@H](Nc1cc(C(=O)N2CCC(NC(=O)OCC(F)F)CC2)nc(-c2cnn3ccsc23)n1)C(C)(C)C", "Experimental target": "JAK2 (Homo sapiens)", "Unit tag": "nM", "IC50": 790}
{"Compound": "C[C@@H](Nc1cc(C(=O)N2CCC(NC(=O)OCC(F)F)CC2)nc(-c2cnn3ccsc23)n1)C1CC1 [Example 96, hydrochloride]", "Experimental target": "JAK2 (Homo sapiens)", "Unit tag": "nM", "IC50": 1000}

(a) CCOC(=O)NC1CCN(C(=O)c2cc(NC(C)(C)C)nc(-c3cnn4ccsc34)n2)CC1
(b) CCCCC(=O)NC1CCN(C(=O)c2cc(N[C@@H](C)C3CC3)nc(-c3cnn4ccsc34)n2)CC1
Task item: Lower value of IC50 belongs to which: a or b ? Lab note: record the label of whichever item you select.
Reply: a
(a: 3700 nM, b: 6600 nM)

---

target: JAK1 (Homo sapiens); construct: purchased Carna Biosciences, Inc; test: JAK tyrosine kinase inhibitory activity in the presence of 1 mM ATP (ELISA), JAK1; format: biochemical
Structures can show the parent of a compound that is named as a salt.
Readout label: IC50 (nM)

{"Compound": "CCOC(=O)NC1CCN(C(=O)c2cc(NC(C)(C)C)nc(-c3cnn4ccsc34)n2)CC1", "Unit tag": "nM", "IC50": 200}
{"Compound": "C[C@H](Nc1cc(C(=O)N2CCC(NC(=O)c3ccccn3)CC2)nc(-c2cnn3ccsc23)n1)C1CC1", "Unit tag": "nM", "IC50": 190}
{"Compound": "C[C@@H](Nc1cc(C(=O)N2CCC(NC(=O)C3CCCCC3)CC2)nc(-c2cnn3ccsc23)n1)C(C)(C)C", "Unit tag": "nM", "IC50": 88}
{"Compound": "COC(=O)NC1CCN(C(=O)c2cc(N[C@@H]3CCNC3)nc(-c3cnn4ccsc34)n2)CC1 [Example 150, dihydrochloride]", "Unit tag": "nM", "IC50": 5200}
{"Compound": "COC(=O)NC1CCN(C(=O)c2cc(N[C@@H]3CCN(C(=O)CC#N)C3)nc(-c3cnn4ccsc34)n2)CC1", "Unit tag": "nM", "IC50": 120}

(1) CCC(=O)NC1CCN(C(=O)c2cc(NCC(C)(C)OC)nc(-c3cnn4ccsc34)n2)CC1
(2) O=C(NC1CCN(C(=O)c2cc(NCC3(COC(F)F)CC3)nc(-c3cnn4ccsc34)n2)CC1)C1CC1
Task item: Which one would you say has the larger IC50 value: 1 , or 2 ? Lab note: record the label of whichever item you select.
Reply: 1

(I) N#CCC(=O)N1CC[C@@H](Nc2cc(C(=O)N3CCC(NC(=O)C4CC4)CC3)nc(-c3cnn4ccsc34)n2)C1
(II) CN(C)C(=O)NC1CCN(C(=O)c2cc(NCC(C)(C)C)nc(-c3cnn4ccsc34)n2)CC1
(III) C[C@@H](Nc1cc(C(=O)N2CCC(NC(=O)c3ccc(F)cc3)CC2)nc(-c2cnn3ccsc23)n1)C(C)(C)C
Task item: Falling order of IC50, please. // format: requested-order list of labels
Reply: II, III, I
(II: 640 nM, III: 120 nM, I: 52 nM)

(1) CCC(=O)NC1CCN(C(=O)c2cc(N[C@@H]3CCN(C(=O)CC#N)C3)nc(-c3cnn4ccsc34)n2)CC1
(2) CCS(=O)(=O)NC1CCN(C(=O)c2cc(N[C@@H](C)C3CC3)nc(-c3cnn4ccsc34)n2)CC1
(3) C[C@H](Nc1cc(C(=O)N2CCC(NS(C)(=O)=O)CC2)nc(-c2cnn3ccsc23)n1)C1CC1
Task item: List the 3 entries from lowest IC50 to highest IC50 value. // format: requested-order list of labels
Reply: 2, 3, 1
(2: 73 nM, 3: 110 nM, 1: 300 nM)

---

target: JAK3 (Homo sapiens); construct: purchased Carna Biosciences, Inc; test: JAK tyrosine kinase inhibitory activity in the presence of 1 mM ATP (ELISA), JAK3; assay type: biochemical
Sequence (P52333 whole entry): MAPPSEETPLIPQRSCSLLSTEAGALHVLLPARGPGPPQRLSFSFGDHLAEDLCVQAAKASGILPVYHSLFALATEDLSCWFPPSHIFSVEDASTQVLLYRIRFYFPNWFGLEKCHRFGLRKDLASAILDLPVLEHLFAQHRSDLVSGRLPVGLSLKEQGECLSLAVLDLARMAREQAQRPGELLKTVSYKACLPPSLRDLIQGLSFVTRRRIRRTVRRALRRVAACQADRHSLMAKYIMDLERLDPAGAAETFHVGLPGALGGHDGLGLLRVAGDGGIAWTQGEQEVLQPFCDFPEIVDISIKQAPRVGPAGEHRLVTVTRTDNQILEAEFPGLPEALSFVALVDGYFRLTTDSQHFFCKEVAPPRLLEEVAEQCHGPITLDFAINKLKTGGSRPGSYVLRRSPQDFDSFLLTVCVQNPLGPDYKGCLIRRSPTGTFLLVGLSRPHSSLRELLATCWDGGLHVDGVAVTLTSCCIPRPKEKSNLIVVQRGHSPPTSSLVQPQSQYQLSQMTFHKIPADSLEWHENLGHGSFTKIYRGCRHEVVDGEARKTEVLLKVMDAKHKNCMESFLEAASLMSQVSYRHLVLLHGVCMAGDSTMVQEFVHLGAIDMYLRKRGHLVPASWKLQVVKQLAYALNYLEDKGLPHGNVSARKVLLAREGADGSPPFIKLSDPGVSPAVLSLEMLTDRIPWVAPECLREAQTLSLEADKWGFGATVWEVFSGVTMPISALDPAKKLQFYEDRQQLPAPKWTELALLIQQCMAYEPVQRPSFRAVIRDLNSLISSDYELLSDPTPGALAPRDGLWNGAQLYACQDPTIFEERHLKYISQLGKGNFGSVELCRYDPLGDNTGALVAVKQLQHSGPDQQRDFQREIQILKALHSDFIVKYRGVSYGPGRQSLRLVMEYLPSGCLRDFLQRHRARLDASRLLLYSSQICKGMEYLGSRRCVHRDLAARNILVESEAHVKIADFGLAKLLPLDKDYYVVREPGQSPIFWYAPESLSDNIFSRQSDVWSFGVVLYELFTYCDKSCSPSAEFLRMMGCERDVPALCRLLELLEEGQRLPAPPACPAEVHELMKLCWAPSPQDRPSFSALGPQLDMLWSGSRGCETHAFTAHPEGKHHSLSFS
Counter-ions that a name gives are not always drawn.
Readout label: IC50 (nM)

// below: answered compounds
{"Compound": "O=C(NC1CCN(C(=O)c2cc(N[C@H]3CCC[C@@H]3OC(F)F)nc(-c3cnn4ccsc34)n2)CC1)C1CC1", "Experimental target": "JAK3 (Homo sapiens)", "IC50 (nM)": 1500}
{"Compound": "C[C@@H](Nc1cc(C(=O)N2CCC(O)CC2)nc(-c2cnn3ccsc23)n1)C(C)(C)C [Example 62, hydrochloride]", "Experimental target": "JAK3 (Homo sapiens)", "IC50 (nM)": 1100}

(1) C[C@H](Nc1cc(C(=O)N2CCC(NS(=O)(=O)C3CC3)CC2)nc(-c2cnn3ccsc23)n1)C1CC1
(2) C[C@@H](Nc1cc(C(=O)N2CCC(NC(=O)c3ccccc3)CC2)nc(-c2cnn3ccsc23)n1)C(C)(C)C
Task item: Lower value of IC50 belongs to which: 1 or 2 ? Lab note: record the label of whichever item you select.
Reply: 2
(2: 1200 nM, 1: 1900 nM)

---

target: JAK1 (Homo sapiens, UniProt P23458); construct: purchased Carna Biosciences, Inc; experiment: JAK tyrosine kinase inhibitory activity in the presence of 1 mM ATP (ELISA), JAK1; assay type: biochemical
Sequence (P23458 whole entry): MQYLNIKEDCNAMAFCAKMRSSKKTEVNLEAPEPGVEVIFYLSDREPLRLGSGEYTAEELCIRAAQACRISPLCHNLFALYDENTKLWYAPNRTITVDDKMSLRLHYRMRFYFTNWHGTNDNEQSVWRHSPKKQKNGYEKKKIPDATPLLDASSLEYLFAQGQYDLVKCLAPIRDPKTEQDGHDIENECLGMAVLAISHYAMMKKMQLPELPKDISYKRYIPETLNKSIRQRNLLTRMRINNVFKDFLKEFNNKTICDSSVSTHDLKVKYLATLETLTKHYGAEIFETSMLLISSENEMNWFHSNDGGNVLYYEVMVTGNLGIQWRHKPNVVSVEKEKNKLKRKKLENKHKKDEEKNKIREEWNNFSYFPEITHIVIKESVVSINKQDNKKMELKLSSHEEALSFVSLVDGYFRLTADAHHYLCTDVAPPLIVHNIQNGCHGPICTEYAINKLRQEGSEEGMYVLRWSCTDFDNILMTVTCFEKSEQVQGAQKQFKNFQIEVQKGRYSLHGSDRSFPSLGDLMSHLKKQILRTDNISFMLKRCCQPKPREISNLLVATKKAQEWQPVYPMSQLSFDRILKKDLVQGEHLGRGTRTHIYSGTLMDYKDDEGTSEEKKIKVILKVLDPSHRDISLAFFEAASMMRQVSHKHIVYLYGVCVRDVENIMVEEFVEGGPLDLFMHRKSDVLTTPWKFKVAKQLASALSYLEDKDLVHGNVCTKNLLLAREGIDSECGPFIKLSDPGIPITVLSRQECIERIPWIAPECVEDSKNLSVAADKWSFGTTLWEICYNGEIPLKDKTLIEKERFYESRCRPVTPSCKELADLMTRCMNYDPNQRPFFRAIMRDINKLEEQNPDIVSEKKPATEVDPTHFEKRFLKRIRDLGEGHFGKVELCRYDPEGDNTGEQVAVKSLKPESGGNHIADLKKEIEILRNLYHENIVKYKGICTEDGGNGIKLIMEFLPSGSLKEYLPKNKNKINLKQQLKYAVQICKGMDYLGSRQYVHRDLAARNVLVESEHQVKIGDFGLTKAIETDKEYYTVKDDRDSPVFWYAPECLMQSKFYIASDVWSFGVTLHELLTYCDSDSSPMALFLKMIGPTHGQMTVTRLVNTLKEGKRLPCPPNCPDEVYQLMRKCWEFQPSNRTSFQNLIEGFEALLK
Readout label: IC50 (nM)

// below: answered compounds
{"Compound": "COC(=O)N1CCC(Nc2cc(C(=O)N3CCC(NC(=O)C4CC4)CC3)nc(-c3cnn4ccsc34)n2)CC1", "Unit tag": "nM", "Observed result": 260}
{"Compound": "CC(Nc1cc(C(=O)N2CCC(NC(=O)C3CC3)CC2)nc(-c2cnn3ccsc23)n1)c1ccncc1 (stereo not shown)", "Unit tag": "nM", "Observed result": 1600}
{"Compound": "C[C@@H](Nc1cc(C(=O)N2CCC(NC(=O)C3CC3)CC2)nc(-c2cnn3ccsc23)n1)C1CCCCC1", "Unit tag": "nM", "Observed result": 160}
{"Compound": "C[C@H](Nc1cc(C(=O)N2CCC(NS(=O)(=O)C3CC3)CC2)nc(-c2cnn3ccsc23)n1)C1CC1", "Unit tag": "nM", "Observed result": 25}

(A) O=C(NC1CCN(C(=O)c2cc(NCC3CNC3)nc(-c3cnn4ccsc34)n2)CC1)C1CC1
(B) CC(=O)N1CCC(Nc2cc(C(=O)N3CCC(NC(=O)C4CC4)CC3)nc(-c3cnn4ccsc34)n2)CC1
(C) COC(=O)NC1CCN(C(=O)c2cc(N[C@H](C)C3CCCCC3)nc(-c3cnn4ccsc34)n2)CC1
Task item: Falling order of IC50, please. // format: requested-order list of labels
Reply: A, B, C
(A: 4100 nM, B: 1300 nM, C: 47 nM)

---

biological target: JAK2 (Homo sapiens); construct: purchased Carna Biosciences, Inc; assay: JAK tyrosine kinase inhibitory activity in the presence of 1 mM ATP (ELISA), JAK2; type: biochemical
Readout label: IC50 (nM)
// note: answer is a bare numeric in nM

// below: answered compounds
{"Smiles input": "C[C@H](Nc1cc(C(=O)N2CCC(Nc3nccs3)CC2)nc(-c2cnn3ccsc23)n1)C1CC1", "Unit tag": "nM", "Observed result": 2000}
{"Smiles input": "CC(C)OC(=O)NC1CCN(C(=O)c2cc(N[C@@H](C)C3CC3)nc(-c3cnn4ccsc34)n2)CC1", "Unit tag": "nM", "Observed result": 2700}

Attention now shifts to the item below.
Task item: Give recorded IC50 with JAK2 (Homo sapiens) for the following compound: `COC(=O)NC1CCN(C(=O)c2cc(N[C@@H](C)C3CC3)nc(-c3cnn4ccsc34)n2)CC1`
Reply: 2100

---

molecular target: JAK1 (Homo sapiens, UniProt P23458); construct: purchased Carna Biosciences, Inc; experiment: JAK tyrosine kinase inhibitory activity in the presence of 1 mM ATP (ELISA), JAK1; format: biochemical
Readout label: IC50 (nM)

// below: answered molecules
{"Molecule": "CCC(=O)NC1CCN(C(=O)c2cc(NC3(C)CC3)nc(-c3cnn4ccsc34)n2)CC1", "IC50 / nM": 760}
{"Molecule": "C[C@@H](C1CC1)N(C)c1cc(C(=O)N2CCC(Nc3ncccn3)CC2)nc(-c2cnn3ccsc23)n1", "IC50 / nM": 270}
{"Molecule": "CCC(C)(C)Nc1cc(C(=O)N2CCC(NC(=O)OC)CC2)nc(-c2cnn3ccsc23)n1", "IC50 / nM": 110}
{"Molecule": "COC(=O)NC1CCN(C(=O)c2cc(NC(C3CC3)C3CC3)nc(-c3cnn4ccsc34)n2)CC1", "IC50 / nM": 280}

(a) COC(=O)NC1CCN(C(=O)c2cc(N[C@@H]3CCN(C)C3)nc(-c3cnn4ccsc34)n2)CC1
(b) CC1(Nc2cc(C(=O)N3CCC(NC(=O)C4CC4)CC3)nc(-c3cnn4ccsc34)n2)CC1
(c) O=C(NC1CCN(C(=O)c2cc(NC3CC4CCC3C4)nc(-c3cnn4ccsc34)n2)CC1)C1CC1 (stereo not shown)
Task item: List the 3 entries from lowest IC50 to highest IC50 value. // format: requested-order list of labels
Reply: c, b, a
(c: 78 nM, b: 240 nM, a: 2600 nM)
